# protocol details: BET inhibitor-based combinations targeting novel dependencies in MECOM-rearranged (r) AML: AML-194 cell line (AID 2202237; further: nearly all actives have a fitted effect of over 40% in size; further: potency means the concentration at half of the fitted maximal effect)
# details: AML-194 (MECOM-r AML) viability, CellTiter-Glo, 48 h; series mostly up to 46 µM
# Method: Ecotropic viral insertion site 1 (EVI1) is located on chromosome 3q26.2 as part of the MECOM (MDS and EVI1 complex) locus. […] A collection of 2480 mechanistically annotated dugs (MIPE v5.0) was used to screen four 3q26.2 rearranged AML cell lines and three non-3q26.2 rearranged AML cell lines. […] Cell viability was determined by luminescence based, Cell Titer Glo assay (Promega). […] Luminescence readings were taken using a Viewlux (PerkinElmer) with a 2 s exposure time per plate. […]
Records with an inconclusive call do not appear. Activity calls are given as the source filed them. The call rests on the fitted dose curve; in most records, active means well fitted inhibition curve with a large enough effect; inconclusive means small, poorly fitted or top-dose-only effect; inactive means flat fitted curve, though single readings scatter.
experimental endpoint: Potency

Would you please look over these solved cases?
CC(NC(C)(C)C)C(=O)c1cccc(Cl)c1 (stereo not drawn) : inactive
C[C@@H]1O[C@@H](O[C@@H]2C=C3CC[C@@H]4[C@H](CC[C@]5(C)[C@@H](c6ccc(=O)oc6)CC[C@]45O)[C@@]3(C)CC2)[C@H](O)[C@H](O)[C@H]1O : 0.0148 µM (active)
CN1C(=O)COc2c(C(=O)NC3CN4CCC3CC4)cc(Cl)cc21 (stereo not drawn) : inactive
Fc1ccc(C(OCCN2CCN(CCCc3ccccc3)CC2)c2ccc(F)cc2)cc1 : 23.5 µM (active)
C[C@]12CCC(=O)C(O)=C1CC[C@@H]1[C@@H]2CC[C@]2(C)C(=O)CC[C@@H]12 : inactive

input: Given the entry COC[C@H]1OC(=O)c2coc3c2[C@@]1(C)C1=C(C3=O)[C@@H]2CC[C@H](O)[C@@]2(C)C[C@H]1OC(C)=O , report its measured Potency.
output: 8.33 µM (active)

input: # Potency lookup, item C/C1=C/C[C@@H](/C(C)=C/c2csc(C)n2)OC(=O)C[C@H](O)C(C)(C)C(=O)[C@H](C)[C@@H](O)[C@@H](C)CCC1
output: 0.0934 µM (active)

input: Item under review: CC(=O)Nc1ccc(OC[C@](C)(O)C(=O)Nc2ccc([N+](=O)[O-])c(C(F)(F)F)c2)cc1 . Reported Potency?
output: inactive

input: Endpoint output: Potency of CCCN1CCO[C@@H]2c3cc(O)ccc3OC[C@H]21 . Value?
output: inactive

input: So what does the record say about Potency for COC[C@@H](NC(C)=O)C(=O)NCc1ccccc1 ?
output: inactive

input: Potency for O=C(Oc1ccc([N+](=O)[O-])cc1)N1CCN(Cc2cccc(Oc3ccccc3)c2)CC1 ?
output: inactive

input: Look at this compound and give its reported Potency. CC1(C)CC[C@]2(NC(=O)C(C)(F)F)CC[C@]3(C)[C@H](C(=O)C=C4[C@@]5(C)C=C(C#N)C(=O)C(C)(C)[C@@H]5CC[C@]43C)[C@@H]2C1
output: 1.86 µM (active)

input: Request the reported Potency associated with C#CC1(O)CCC2C3CCC4=CC(=O)CCC4(C)C3CCC21C (stereo not drawn)
output: inactive

input: Which Potency value belongs to O=c1[nH]c2ccccc2n1C1CCN(Cc2ccc(-c3[nH]c4cc5ncnc5cc4nc3-c3ccccc3)cc2)CC1 ?
output: 20.9 µM (active)

input: Potency lookup needed for COC(=O)[C@@H](N)CCCN=C(N)N[N+](=O)[O-] , thanks.
output: inactive

input: I am curious: what Potency value has been reported for COC(=O)[C@]12CCC(C)(C)C[C@H]1[C@H]1C(=O)C=C3[C@@]4(C)C=C(C#N)C(=O)C(C)(C)[C@@H]4CC[C@@]3(C)[C@]1(C)CC2 ?
output: 2.63 µM (active)

input: Quick check: Potency of Cc1[nH]nc2ccc(-c3cncc(OC[C@@H](N)Cc4c[nH]c5ccccc45)c3)cc12 ?
output: 0.934 µM (active)

input: Give the measured Potency of CC[C@H]1/C=C\C=C/C[C@@H](C)[C@H](O)[C@@](C)(O)C(=O)[C@@H](C)[C@H](O)[C@@H](C)C(=O)[C@@H](C)[C@H](O)[C@@H](C)/C=C\C(=O)O[C@@H]2[C@H](C)[C@H](CC1)O[C@]1(CC[C@H](C)[C@H](C[C@@H](C)O)O1)[C@H]2C .
output: 2.95 µM (active)

input: Using the record for C=C(C)[C@H]1Cc2c(ccc3c2O[C@@H]2COc4cc(OC)c(OC)cc4[C@@H]2C3=O)O1 , report its Potency.
output: 0.934 µM (active)

input: Need Potency, item C#CCN(C)[C@H](C)Cc1ccccc1
output: inactive

input: For the compound shown here, COc1ccc(C(=O)c2c(C)n(CCN3CCOCC3)c3ccccc23)cc1 , give the reported Potency.
output: 1.48 µM (active)

input: Field request: Potency | item: CCOc1ccccc1-n1c(C(C)N2CCN(C(=O)COc3ccc(Cl)cc3)CC2)nc2ccccc2c1=O (stereo not drawn)
output: 4.68 µM (active)

input: Item under review: CC1(N2CCC(n3c([C@@H]4CCCNC4)nc4ccccc43)CC2)CCCCCCC1 . Reported Potency?
output: 26.3 µM (active)

input: I would be grateful if you could share the reported Potency for CCN1C[C@]2(OC(=O)c3ccccc3NC(C)=O)CC[C@H](OC)[C@@]34[C@H]5CC6[C@@H](OC)C[C@](O)(C(C[C@@H]23)[C@@H]14)[C@@]5(O)[C@@H]6OC .
output: inactive

input: Param item = CC(=O)O[C@@]12CO[C@@H]1C[C@H](O)[C@@]1(C)C(=O)[C@H](O)C3=C(C)[C@@H](O)C[C@@](O)([C@@H](OC(=O)c4ccccc4)[C@H]21)C3(C)C ; retrieve measured Potency.
output: 23.5 µM (active)

input: Please give the measured Potency for this compound: CC(O)(CS(=O)(=O)c1ccc(F)cc1)C(=O)Nc1ccc(C#N)c(C(F)(F)F)c1 (stereo not drawn)
output: inactive

input: # get_value(readout='Potency', item= CN(C)NC(=O)CCC(=O)O )
output: inactive

input: Recorded Potency of CC(=O)c1c(O)c(C)c(O)c(Cc2c(O)c3c(c(C(=O)/C=C/c4ccccc4)c2O)OC(C)(C)C=C3)c1O , please.
output: inactive

input: Given the entry O=C1CC[C@@]2(O)[C@H]3Cc4ccc(O)c5c4[C@@]2(CCN3CC2CC2)[C@H]1O5 , report its measured Potency.
output: inactive

---

# target system: Cellular tumor antigen p53 (Homo sapiens) (UniProt P04637)
# Sequence (P04637 whole entry, looked up): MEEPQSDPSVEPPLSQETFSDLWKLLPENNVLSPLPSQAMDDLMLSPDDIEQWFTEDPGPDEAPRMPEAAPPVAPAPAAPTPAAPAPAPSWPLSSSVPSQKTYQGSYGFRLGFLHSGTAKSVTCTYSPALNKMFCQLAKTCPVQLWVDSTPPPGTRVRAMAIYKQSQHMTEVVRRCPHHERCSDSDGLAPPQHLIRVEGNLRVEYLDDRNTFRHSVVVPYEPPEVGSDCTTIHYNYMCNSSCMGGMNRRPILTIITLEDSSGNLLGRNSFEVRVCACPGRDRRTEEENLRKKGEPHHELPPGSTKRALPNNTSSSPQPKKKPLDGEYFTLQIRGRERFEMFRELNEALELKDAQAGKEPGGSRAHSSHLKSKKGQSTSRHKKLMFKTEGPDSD
# protocol details: Primary qHTS for small molecule compounds that upregulate eGFP-tagged delta133p53alpha (in N-terminal) cells. (AID 2060322);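 further: cells pre-induced with doxycycline then dosed without doxycycline; 0% = DMSO vehicle and 100% = reference activator; nearly all actives have a fitted effect of over 75% in size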
# details: NCI-H358 eGFP-delta133p53alpha fluorescence, 24 h; hits give high values
Inconclusive results are not listed.
The entries below are paired with their reported activation.
Form entry: value (%) — number only.

C[C@]12CC[C@H](O)C[C@@H]1CC[C@@H]1[C@@H]2CC[C@]2(C)[C@@H](C3=CC(=O)OC3)CC[C@]12O : 7.63
N[C@@H](Cc1ccc(Oc2cc(I)c(O)c(I)c2)c(I)c1)C(=O)O : 11.7
CCC(C)(OC(C)=O)C(=O)O[C@H]1[C@H](OC(C)=O)C[C@@H]2[C@@](C)([C@@H]3C[C@H]4C=CO[C@H]4O3)[C@H](C)C[C@H](OC(C)=O)[C@@]2(COC(C)=O)[C@@]12CO2 (some centres undefined) : -3.82
COC(=O)N1CCN(C(=O)Cc2ccc(Cl)c(Cl)c2)[C@@H](CN2CCCC2)C1 : 1.91
OCCCCC#Cc1cncc(OC[C@@H]2CCN2)c1 : -1.43
CSCC[C@@H](NC(=O)[C@@H](Cc1ccccc1)NC(=O)CNC(=O)CNC(=O)[C@@H](N)Cc1ccc(O)cc1)C(=O)O : 22.9
CCN1C[C@@]2(COC)C3[C@@H](OC)C4[C@@H]1C3([C@@H]1C[C@]3(O)[C@H](OC(=O)c5ccccc5)[C@@H]1[C@]4(OC(C)=O)[C@@H](O)[C@@H]3OC)[C@H](OC)C[C@H]2O : -12.5
COc1cc(N2CCN(C)CC2)ccc1N : 20

input: Reported activation, compound COC1C=CC23c4cc5c(cc4COC2(O)CN(C)C3C1)OCO5 (centres undefined) : ____
output: -5.36

input: State the recorded activation for this entry: CCC(=O)CCCCC[C@@H]1NC(=O)[C@H]2CCCCN2C(=O)[C@H]([C@@H](C)CC)NC(=O)[C@H](Cc2cn(OC)c3ccccc23)NC1=O
output: -11.2

input: Name the recorded activation for Fc1cc(F)c2c(c1)[C@H]1C=CC[C@H]1C(c1cccnc1)N2 (some centres undefined) .
output: 2.39

input: Entry CN1C2CCC1CC(OC(=O)c1cc(Cl)cc(Cl)c1)C2 (centres undefined) : reported activation = ?
output: -57.3

Data provenance is PubChem BioAssay (NCATS).
